# key: entry, value: RFP signal change
# assay-notes: GFP drop in mixed WT/humanized-ribosome E. coli culture – GFP/RFP fluorescence, OD600, single point, bacterial rRNA inhibitor project, primary screen (AID 720706)
# condition-details: E. coli WT GFP vs humanized-ribosome RFP mutants, 24 h; measured here: RFP humanized mutant strains, DMSO median 0, no signal -100, concentration not given here
Out of some 350,000 compounds screened, about 5,500 (1.6%) were called active. The list comes from a sample in which actives are over-represented; it also holds close analogues and randomly drawn compounds.
endpoint: RFP signal change (%)

INSERT INTO results (smiles_structure, endpoint, value_units, quantitative_readout) VALUES
  ('C[C@@H](NC(=O)C[C@@H]1CC[C@H]2[C@@H](COC[C@@H](O)CN2C(=O)Nc2cccc(F)c2)O1)c1ccccc1', 'RFP signal change', '%', 5.17),
  ('O=C(CCCO)N/N=C/c1cc(Br)ccc1O', 'RFP signal change', '%', 1.76),
  ('O=C(CCc1ccc(O)cc1)NN=Cc1cc(Br)ccc1O', 'RFP signal change', '%', -8.11);

====

The following compounds are listed with their measured OD600 change values.
# assay-notes: GFP drop in mixed WT/humanized-ribosome E. coli culture – GFP/RFP fluorescence, OD600, single point, bacterial rRNA inhibitor project, primary screen (AID 720706)
# condition-details: E. coli WT GFP vs humanized-ribosome RFP mutants, 24 h; measured here: OD600 growth, DMSO median 0, no signal -100
Among all 350,000 compounds or so, about 5,500 (1.6%) were called active. What follows is part of a selection rich in actives, with near analogues and random picks from the rest.
endpoint: OD600 change (%)

INSERT INTO assay_data (compound, quantitative_readout) VALUES
  ('Nc1ccc(N=Nc2ccccc2Cl)c(N)n1', -18.6),
  ('CC(C)NC(=O)NCC[C@H]1CC[C@@H](NS(=O)(=O)c2ccc(Oc3ccccc3)cc2)[C@@H](CO)O1', -25.1),
  ('CCc1ccccc1OCC(=O)Nc1ccc2c(c1)OCCO2', -29.9),
  ('COc1ccc(NC(=O)CN(Cc2ccccc2)S(C)(=O)=O)cc1OC', 3.04),
  ('Cc1ccc2nc(-c3ccc(NC(=O)CN(C)S(=O)(=O)c4ccccc4)cc3)sc2c1', 6.57),
  ('COc1ccccc1NC(=O)N[C@H]1CC[C@H](CCNS(=O)(=O)c2ccc(Cl)cc2)O[C@H]1CO', -10.8),
  ('Cc1cc([N+](=O)[O-])ccc1NS(=O)(=O)c1ccccc1', -35.5),
  ('O=[N+]([O-])c1cccc(/C([O-])=C(/C(=S)Nc2ccccc2F)[n+]2ccccc2)c1', 13.1),
  ('CO[C@@H]1CN(C)C(=O)c2cc(NC(=O)C3CC3)ccc2OC[C@@H](C)N(C(=O)NC(C)C)C[C@@H]1C', 1.51),
  ('CCOc1ccccc1NC(=S)C(=C([O-])c1ccc2c(c1)OCCO2)[n+]1ccc(CC)cc1', -16.2),
  ('Cc1cc(C)n(S(=O)(=O)c2cccc([N+](=O)[O-])c2)n1', 9.05),
  ('CO[C@H]1CN(C)C(=O)c2cc(NC(=O)c3cnccn3)ccc2OC[C@@H](C)N(CC2CC2)C[C@@H]1C', -3.03),
  ('Cc1ccccc1OS(=O)(=O)c1cccc([N+](=O)[O-])c1', -15.1),
  ('C[C@H](CO)N1C[C@H](C)[C@H](CN(C)CC2CC2)OCCCC[C@H](C)Oc2ccc(NS(=O)(=O)c3cccs3)cc2C1=O', -2.73),
  ('COCC(=O)Nc1ccc2c(c1)[C@H]1C[C@H](CC(=O)NCc3ccccn3)O[C@H](CO)[C@H]1O2', -4.21),
  ('C=CCN(c1ccccc1C(=O)NCC(=O)OCC)S(=O)(=O)c1ccc(C)cc1', -1.3),
  ('COc1ccc(NC(=O)CN(C)S(=O)(=O)c2ccccc2)cc1OC', -15.8),
  ('CC(C)(C)C(c1nc2ccccc2[nH]1)n1c(Cc2csc3ccccc23)nc2ccccc21 (centres undefined)', -4.49),
  ('C[C@H](CO)N1C[C@H](C)[C@@H](CN(C)S(=O)(=O)c2ccc(Cl)cc2)Oc2ccc(NS(=O)(=O)c3cccs3)cc2CC1=O', -15.4);
